target: GHSR-1a (HEK293/GHSR1a cell line) (Homo sapiens); construct: expressed in transfected cells; host or cells: HEK293/GHSR1a cell line; test: Ghrelin antagonist potency (IC50) with calcium FLIPR assay, ghrelin 10 nM; type: cell-based; settings: ghrelin antagonist potency, read-out: IC50 (Activity)
Sequence (Q92847 whole entry): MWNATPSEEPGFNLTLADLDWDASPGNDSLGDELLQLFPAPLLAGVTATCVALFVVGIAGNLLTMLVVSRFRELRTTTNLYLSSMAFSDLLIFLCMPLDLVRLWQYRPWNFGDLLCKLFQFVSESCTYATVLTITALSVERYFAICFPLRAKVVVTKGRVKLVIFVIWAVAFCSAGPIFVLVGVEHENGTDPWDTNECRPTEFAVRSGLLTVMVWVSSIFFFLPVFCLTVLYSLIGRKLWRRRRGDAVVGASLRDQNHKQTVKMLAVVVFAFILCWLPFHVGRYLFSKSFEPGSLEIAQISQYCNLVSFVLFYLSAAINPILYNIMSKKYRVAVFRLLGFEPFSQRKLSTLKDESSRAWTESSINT
Counter-ions that a name gives are not always drawn.
IC50 less than 0.2 µM is 1.0; IC50 greater than or equal to 0.2 µM is 0.0.

| COMPOUND | CAT |
| --- | --- |
| C[C@H](NC(=O)Nc1ccc(S(=O)(=O)Nc2ccc3[nH]ncc3c2)cc1)c1cccc(Cl)c1Cl | 0.0 |
| CC(c1ccc2c(c1)CCNC2)S(=O)(=O)c1ccc(NC(=O)N[C@@H](C)c2cccc(Cl)c2Cl)cc1 (stereo partly shown) [H1103, hydrochloride] | 0.0 |
| COc1ccc([C@H](C)NC(=O)Nc2ccc(S(=O)(=O)Nc3ccc4c(c3)CCN(S(C)(=O)=O)C4)cc2)c(Cl)c1Cl | 0.0 |
| CC(NC(=O)Nc1ccc(S(=O)(=O)C(C)c2ccc3c(c2)CN(Cc2ccccc2)C3)cc1)c1ccccc1 (stereo not shown) | 0.0 |
| CCc1ccc(Cl)c(C(=O)NC(=O)Nc2ccc(S(=O)(=O)Cc3ccc(CC(C)(C)N)cc3)cc2)c1 | 1.0 |
| C[C@H](NC(=O)Nc1ccc(S(=O)(=O)Nc2ccc(-c3ncc[nH]3)cc2)cc1)c1cccc(Cl)c1Cl | 0.0 |
| C[C@H](NC(=O)N(C)c1ccc(S(=O)(=O)Nc2ccc(CC(C)(C)N)cc2)cc1)c1ccc(-c2cnccn2)c(Cl)c1Cl | 0.0 |
| C[C@H](NC(=O)Nc1ccc(S(=O)(=O)Nc2ccc3[nH]ccc3c2)cc1)c1cccc(Cl)c1Cl | 1.0 |
| C[C@H](NC(=O)Nc1ccc(S(=O)(=O)Nc2ccc(N)nc2)cc1)c1cccc(Cl)c1Cl | 1.0 |
| CC(NC(=O)Nc1ccc(S(=O)(=O)Cc2ccc3c(c2)CNC3)cc1)c1ccccc1.Cl (stereo not shown) | 1.0 |
| C[C@H](NC(=O)Nc1ccc(S(=O)(=O)Cc2cccc(CO)c2)cc1)c1cccc(Cl)c1Cl | 0.0 |
| O=C(NCc1ccccc1)Nc1ccc(S(=O)(=O)Cc2ccc3c(c2)CCNC3)cc1 | 0.0 |
| CC(NC(=O)Nc1ccc(S(=O)(=O)Cc2ccc3c(c2)CCNC3)cc1)c1cccc(Cl)c1 (stereo not shown) | 1.0 |
| O=C(NC(=O)c1cc(N2CCOCC2)ccc1Cl)Nc1ccc(S(=O)(=O)Cc2ccc3c(c2)CNC3)cc1 | 0.0 |
| O=C(NCc1cscn1)Nc1ccc(S(=O)(=O)Cc2ccc3c(c2)CNC3)cc1 | 0.0 |
| C[C@H](NC(=O)Nc1ccc(S(=O)(=O)Nc2ccc3c(c2)CCCN3)cc1)c1cccc(Cl)c1Cl | 0.0 |
| C[C@H](NC(=O)Nc1ccc(S(=O)(=O)Nc2ccnc(N)n2)cc1)c1cccc(Cl)c1Cl | 0.0 |
| COc1ccc([C@H](C)NC(=O)Nc2ccc(S(=O)(=O)Nc3ccccc3)cc2)c(Cl)c1Cl | 0.0 |
| COc1ccc(CNC(=O)Nc2ccc(S(=O)(=O)Cc3ccc4c(c3)CNC4)cc2)cc1 | 0.0 |
| Cl.O=C(NCc1ccccc1)Nc1ccc(S(=O)(=O)Cc2ccc3c(c2)CNC3)cc1 | 1.0 |
| COC(=O)c1cccc(CS(=O)(=O)c2ccc(NC(=O)N[C@@H](C)c3cccc(Cl)c3Cl)cc2)c1 | 0.0 |
| COc1ccc(C(C)NC(=O)Nc2ccc(S(=O)(=O)Cc3ccc4c(c3)CNC4)cc2)c2ccccc12 (stereo not shown) | 1.0 |
| C[C@H](NC(=O)Nc1ccc(S(=O)(=O)Cc2cnc(N)nc2)cc1)c1cccc(Cl)c1Cl | 0.0 |
| C[C@H](NC(=O)Nc1ccc(S(=O)(=O)Cc2ccc3c(c2)CCN(Cc2ccccc2)C3)cc1)c1cccc(Cl)c1Cl | 1.0 |
| C[C@H](NC(=O)Nc1ccc(S(=O)(=O)C(C)(C)c2ccc3c(c2)CCNC3)cc1)c1cccc(Cl)c1Cl | 0.0 |
| COc1ccc([C@H](C)NC(=O)Nc2ccc(S(=O)(=O)Nc3ccc(CC(C)(C)N)cc3)cc2)c(Cl)c1Cl | 1.0 |
| O=C(NCc1cncs1)Nc1ccc(S(=O)(=O)Cc2ccc3c(c2)CNC3)cc1 | 0.0 |
| C[C@H](NC(=O)Nc1ccc(S(=O)(=O)N(C)c2ccc(CC(C)(C)N)cc2)cc1)c1cccc(Cl)c1Cl.Cl | 0.0 |
| C[C@H](NC(=O)Nc1ccc(S(=O)(=O)CC2CC2)cc1)c1cccc(Cl)c1Cl | 0.0 |
| CC(c1ccc2c(c1)CCNC2)S(=O)(=O)c1ccc(NC(=O)N[C@@H](C)c2cccc(Cl)c2Cl)cc1 (stereo partly shown) [H1102, hydrochloride] | 1.0 |
| CCN1Cc2ccc(CS(=O)(=O)c3ccc(NC(=O)NC(C)c4ccccc4)cc3)cc2C1 (stereo not shown) | 1.0 |
